Catalogue of patients with anti-drug antibodies values
# Experiment Description: patients with anti-drug antibodies; higher = more immunogenic
Lab book: enter the figure in %, no units written.

Example results:
Protein	Experimental Readout	Result Number
unnamed (protein) chain 1: QVQLVQSGAEVKKPGASVKVSCKVSGYTFTSYDINWVRQAPGKGLEWMGWIYPGDGSIKYNEKFKGRVTMTVDKSTDTAYMELSSLRSEDTAVYYCARRGEYGNYEGAMDYWGQGTLVTVSS chain 2: DIQMTQSPSSLSASVGDRVTITCKASQSVDYDGHSYMNWYQQKPGKAPKLLIYAASNLESGVPSRFSGSGSGTDFTLTISSLQPEDFATYYCQQSDENPLTFGGGTKVEIK	patients with anti-drug antibodies	0.9
unnamed (protein) chain 1: QLQLQESGPGLVKPSETLSLTCTVSGGSINSSSYYWGWLRQSPGKGLEWIGSFFYTGSTYYNPSLRSRLTISVDTSKNQFSLMLSSVTAADTAVYYCARQSTYYYGSGNYYGWFDRWDQGTLVTVSS chain 2: EIVLTQSPATLSLSPGERATLSCRASQSVSSYLAWYQQKPGQAPRLLIYDASNRATGIPARFSGSGSGTDFTLTISSLEPEDFAVYYCQQRSNWPPAFGQGTKVEIK	patients with anti-drug antibodies	3.5
unnamed (protein) chain 1: QVQLVQSGAEVKKPGASVKVSCKASGYIFSNYWIQWVRQAPGQGLEWMGEILPGSGSTEYTENFKDRVTMTRDTSTSTVYMELSSLRSEDTAVYYCARYFFGSSPNWYFDVWGQGTLVTVSS chain 2: DIQMTQSPSSLSASVGDRVTITCGASENIYGALNWYQQKPGKAPKLLIYGATNLADGVPSRFSGSGSGTDFTLTISSLQPEDFATYYCQNVLNTPLTFGQGTKVEIK	patients with anti-drug antibodies	2

Request: State, in one line, measured patients with anti-drug antibodies of unnamed (protein) chain 1: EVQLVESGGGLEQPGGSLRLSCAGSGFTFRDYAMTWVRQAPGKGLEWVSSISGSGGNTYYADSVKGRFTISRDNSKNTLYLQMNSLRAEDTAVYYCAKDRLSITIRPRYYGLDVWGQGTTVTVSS chain 2: DIVMTQSPLSLPVTPGEPASISCRSSQSLLYSIGYNYLDWYLQKSGQSPQLLIYLGSNRASGVPDRFSGSGSGTDFTLKISRVEAEDVGFYYCMQALQTPYTFGQGTKLEIK
Result: 4

Request: Identify measured patients with anti-drug antibodies corresponding to unnamed (protein) chain 1: QVELVESGGGLVQPGGSLRLSCAASGFTFSSYAMSWVRQAPGKGLEWVSAINASGTRTYYADSVKGRFTISRDNSKNTLYLQMNSLRAEDTAVYYCARGKGNTHKPYGYVRYFDVWGQGTLVTVSS chain 2: DIVLTQSPATLSLSPGERATLSCRASQSVSSSYLAWYQQKPGQAPRLLIYGASSRATGVPARFSGSGSGTDFTLTISSLEPEDFATYYCLQIYNMPITFGQGTKVEIK
Result: 0
